Tested on: 292921-168-R-J2-PDC complex spheroid viability;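 also: seven day compound exposure before luminescent viability read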
assay.explanation: Anticancer human tumor 292921-168-R-J2-PDC patient-derived pancreatic carcinoma cell line growth inhibition; active = viability on the fitted dose curve at most 10% of control; inactive = the rest
assay.context: second compound 3.16 µM; first compound 0.316 µM
Return exactly one item of TRUE for active, FALSE for inactive

>>> label("COc1cc(Nc2ncc3c(n2)-c2ccc(Cl)cc2C(c2c(F)cccc2OC)=NC3)ccc1C(=O)O + NC1CC1c1ccc(-c2cccc(O)c2)cc1")
"FALSE"
>>> label("Nc1ncn(C2CC(O)C(CO)O2)c(=O)n1 (stereo not drawn) + NC1CC1c1ccc(-c2cccc(O)c2)cc1")
"FALSE"
>>> label("CC1COCCN1c1cc(-c2ccnn2C)c2ccnc(-c3ccn[nH]3)c2n1 (stereo not drawn) + NC1CCC(NC2CC2c2ccccc2)CC1")
"FALSE"
>>> label("CC1COCCN1c1cc(-c2ccnn2C)c2ccnc(-c3ccn[nH]3)c2n1 (stereo not drawn) + NC1CC1c1ccc(-c2cccc(O)c2)cc1")
"FALSE"
>>> label("CC1COCCN1c1cc(C2(S(C)(=N)=O)CC2)nc(-c2ccnc3[nH]ccc23)n1 (stereo not drawn) + NC1CCC(NC2CC2c2ccccc2)CC1")
"FALSE"

Qu. Recorded test outcome, item O=C(C=Cn1cnc(-c2cc(C(F)(F)F)cc(C(F)(F)F)c2)n1)NNc1cnccn1 + NC1CC1c1ccc(-c2cccc(O)c2)cc1
Ans. TRUE

Qu. Answer briefly: the call reported for COc1ccc([C@@H](O)c2cc(-c3ncnc4cc(N5CCOCC5)ccc34)c(F)cc2Cl)nn1 + NC1CCC(NC2CC2c2ccccc2)CC1 in this assay.
Ans. FALSE

Qu. Outcome? CC1COCCN1c1cc(C2(S(C)(=N)=O)CC2)nc(-c2ccnc3[nH]ccc23)n1 (stereo not drawn) + NC1CC1c1ccc(-c2cccc(O)c2)cc1
Ans. FALSE
